Target: UniProtKB P42684
Sequence (P42684 whole entry): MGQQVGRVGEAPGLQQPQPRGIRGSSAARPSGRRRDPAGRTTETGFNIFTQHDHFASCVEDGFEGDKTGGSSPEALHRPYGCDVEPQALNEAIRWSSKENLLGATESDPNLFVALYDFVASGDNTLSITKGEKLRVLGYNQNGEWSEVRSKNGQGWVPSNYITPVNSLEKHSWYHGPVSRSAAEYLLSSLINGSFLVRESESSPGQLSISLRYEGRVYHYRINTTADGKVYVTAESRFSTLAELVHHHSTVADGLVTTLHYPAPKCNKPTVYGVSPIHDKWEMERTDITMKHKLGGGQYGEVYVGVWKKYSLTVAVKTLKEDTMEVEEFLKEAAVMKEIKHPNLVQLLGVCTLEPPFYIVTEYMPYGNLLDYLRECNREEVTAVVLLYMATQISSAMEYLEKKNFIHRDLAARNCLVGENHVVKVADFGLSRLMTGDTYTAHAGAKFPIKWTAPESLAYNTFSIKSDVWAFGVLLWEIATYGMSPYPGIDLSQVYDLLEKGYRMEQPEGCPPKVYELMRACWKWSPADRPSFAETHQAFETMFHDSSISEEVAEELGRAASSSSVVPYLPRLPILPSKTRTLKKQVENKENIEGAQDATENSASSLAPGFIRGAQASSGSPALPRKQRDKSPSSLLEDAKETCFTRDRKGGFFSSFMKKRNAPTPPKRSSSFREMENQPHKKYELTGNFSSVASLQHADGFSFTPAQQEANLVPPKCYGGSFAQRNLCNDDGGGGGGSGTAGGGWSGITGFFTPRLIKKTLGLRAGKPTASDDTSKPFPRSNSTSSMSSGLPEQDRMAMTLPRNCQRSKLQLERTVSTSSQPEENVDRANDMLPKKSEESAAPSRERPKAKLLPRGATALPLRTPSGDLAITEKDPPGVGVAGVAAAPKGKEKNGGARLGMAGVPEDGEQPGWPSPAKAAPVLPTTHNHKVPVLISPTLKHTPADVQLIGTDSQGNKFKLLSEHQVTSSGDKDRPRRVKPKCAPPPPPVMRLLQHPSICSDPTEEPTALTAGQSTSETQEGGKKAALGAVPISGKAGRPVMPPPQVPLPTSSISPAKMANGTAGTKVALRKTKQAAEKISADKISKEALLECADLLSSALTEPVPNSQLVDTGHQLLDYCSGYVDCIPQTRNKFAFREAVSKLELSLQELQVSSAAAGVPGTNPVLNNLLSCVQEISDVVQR
Test: Inhibition of ARG (unknown origin) ACT labeling site by KiNativ Profiling analysis
readout-kind: pIC50
pIC50 (log units): -log10 of the concentration in mol/L.

Q: Would you mind telling me what pIC50 value was observed for CCN1CCN(Cc2ccc(NC(=O)c3ccc(C)c(/C=C/c4cnc5[nH]ccc5c4OC)c3)cc2C(F)(F)F)CC1 ?
Ans: 7.29

Q: Would you mind telling me what pIC50 value was observed for CCN1CCN(Cc2ccc(NC(=O)c3ccc(C)c(Oc4ccnc5[nH]ccc45)c3)cc2C(F)(F)F)CC1 ?
Ans: 7.12

====

Target: Mitogen-activated protein kinase kinase kinase kinase 2 (Homo sapiens) (UniProt Q12851)
Sequence (whole entry): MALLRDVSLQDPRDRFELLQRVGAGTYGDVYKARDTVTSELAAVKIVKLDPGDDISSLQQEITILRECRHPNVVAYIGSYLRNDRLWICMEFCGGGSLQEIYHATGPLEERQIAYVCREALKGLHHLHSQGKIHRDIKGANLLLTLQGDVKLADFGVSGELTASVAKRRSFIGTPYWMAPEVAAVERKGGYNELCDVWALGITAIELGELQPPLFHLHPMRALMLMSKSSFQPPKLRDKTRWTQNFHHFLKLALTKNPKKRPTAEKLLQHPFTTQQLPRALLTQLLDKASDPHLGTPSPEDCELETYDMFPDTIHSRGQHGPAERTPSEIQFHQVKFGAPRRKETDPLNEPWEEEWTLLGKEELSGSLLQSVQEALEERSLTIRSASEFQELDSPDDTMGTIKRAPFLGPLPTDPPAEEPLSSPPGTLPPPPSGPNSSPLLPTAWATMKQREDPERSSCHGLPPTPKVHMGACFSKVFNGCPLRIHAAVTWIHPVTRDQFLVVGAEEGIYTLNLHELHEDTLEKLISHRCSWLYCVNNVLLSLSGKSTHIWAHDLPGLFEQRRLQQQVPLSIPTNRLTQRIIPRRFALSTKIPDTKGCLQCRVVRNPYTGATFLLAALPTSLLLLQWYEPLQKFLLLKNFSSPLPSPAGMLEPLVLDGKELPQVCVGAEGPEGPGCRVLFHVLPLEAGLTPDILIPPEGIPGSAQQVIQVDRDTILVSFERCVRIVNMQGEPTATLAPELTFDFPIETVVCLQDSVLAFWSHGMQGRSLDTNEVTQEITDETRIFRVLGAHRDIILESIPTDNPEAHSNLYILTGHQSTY
Test: Inhibition of MAP4K2 Lys1 labeling site in human A-375 cells at 0.5 uM by KiNativ Profiling analysis relative to control
Type: cell-based
Would you mind telling me the reported inhibition of each entry?
Give the value, in units of %, as a plain number.

Q: Would you mind telling me what inhibition value was observed for CCN1CCN(Cc2ccc(NC(=O)c3ccc(C)c(CCc4cnc5[nH]ccc5c4OC)c3)cc2C(F)(F)F)CC1 ?
Ans: 84.3

Q: Would you mind telling me what inhibition value was observed for CCN1CCN(Cc2ccc(NC(=O)c3ccc(C)c(Oc4cc(NC)ncn4)c3)cc2C(F)(F)F)CC1 ?
Ans: 91.3

Q: Would you mind telling me what inhibition value was observed for Cc1ccc(C(=O)Nc2cc(N3CCN(C)CC3)cc(C(F)(F)F)c2)cc1Oc1ncnc2[nH]ccc12 ?
Ans: 73.6

Q: Would you mind telling me what inhibition value was observed for CCN1CCN(Cc2ccc(NC(=O)c3ccc(C)c(Oc4ncnc5[nH]ncc45)c3)cc2C(F)(F)F)CC1 ?
Ans: 89.9

Q: Would you mind telling me what inhibition value was observed for CCN1CCN(Cc2ccc(NC(=O)c3ccc(C)c(OCc4cnc5[nH]ccc5c4OC)c3)cc2C(F)(F)F)CC1 ?
Ans: 89.4

Q: Would you mind telling me what inhibition value was observed for CNc1cc(Oc2cc(C(=O)Nc3cc(-n4cnc(C)c4)cc(C(F)(F)F)c3)ccc2C)ncn1 ?
Ans: 79.7

Q: Would you mind telling me what inhibition value was observed for CNc1cc(Oc2cc(C(=O)Nc3cc(N4CCN(C)CC4)cc(C(F)(F)F)c3)ccc2C)ncn1 ?
Ans: 85.3

Q: Would you mind telling me what inhibition value was observed for CCN1CCN(Cc2ccc(NC(=O)c3ccc(C)c(Oc4ncnc5cc(OC)c(OC)cc45)c3)cc2C(F)(F)F)CC1 ?
Ans: 93.2

Q: Would you mind telling me what inhibition value was observed for Cc1cn(-c2cc(NC(=O)c3ccc(C)c(Oc4ccnc5[nH]ccc45)c3)cc(C(F)(F)F)c2)cn1 ?
Ans: 72
